Molecular target: T1, Cynomolgus macaques TSLP recombinant protein (Cynomolgus macaques, UniProt Q969D9 29-159 (human entry), limits assumed, biotinylated in the blocking assays (sites not given))
T1 construct: also called cyTSLP; biotinylated Cynomolgus macaques TSLP protein
T1 chain: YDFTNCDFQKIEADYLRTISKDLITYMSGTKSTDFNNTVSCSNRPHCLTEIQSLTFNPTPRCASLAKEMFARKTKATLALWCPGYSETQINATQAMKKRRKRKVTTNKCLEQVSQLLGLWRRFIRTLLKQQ
Assay: ELISA on coated cynomolgus TSLP;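 further: Read-out was TMB colorimetric signal measured as absorbance at 450 nm after 10 min development at 37 °C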
Property measured: EC50 (nM)
I only need the number, in nM, no unit after it.

Binder	Measure unit	EC50
Ab20 (antibody, V domains shown, Humanized; also called h71G4VHv2/h71G4VKv1) VH: QVQLVQSGAEVKKPGSSVKVSCKASGYTFTDYWMHWVRQAPGQGLEWMGTIDNSDSDTTYNQKFQGRVTLTVDTSTSTAYMELSSLRSEDTAVYYCARSVDGYLDYWGQGTLVTVSS VL: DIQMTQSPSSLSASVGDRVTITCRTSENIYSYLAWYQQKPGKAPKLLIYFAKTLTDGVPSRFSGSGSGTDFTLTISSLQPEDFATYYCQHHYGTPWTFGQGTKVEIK	nM	0.27

# ---- query binder ----
Quick check: EC50 of Ab8 (antibody, V domains shown, Humanized; also called h39G5VHv8/h39G5VKv1) VH: EVQLVQSGAEVKKPGESLKISCKASGYTFTDYWMHWVRQMPGKGLEWMGIIDPSDSDTSLNQSFQGHVTLSVDKSSTTAYLQWSSLKASDTAMYYCARSLDGYYDYWGQGTLVTVSS VL: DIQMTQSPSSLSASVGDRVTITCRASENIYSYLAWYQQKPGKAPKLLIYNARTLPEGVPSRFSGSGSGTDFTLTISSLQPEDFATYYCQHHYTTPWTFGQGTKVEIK ?
5.51
